# PROCEDURE DETAILS: folding stability dG unfold (combined trypsin and chymotrypsin); higher = more stable
RESULT TYPE: folding stability dG unfold (kcal/mol)

- GMPYTVDVVIEEAEDGVIIPIKLSVDGALVAEAVAPVDPVTKKVVIKPGAASKEALDVALEKLKELGIEPGS [r1_455_TrMRF]: 0.162
- SAGGSAGGGPYKTSYAIVDGSVVASTEGDPETGVVTSTFTFDGSDVEYTTPATPGEAVTRTVSLSAGGSAGG [r6_972_JUSTAS]: 0.346
- SAGGSKPKTVEITLEVDGKKVKITVTEKDGKLTVTITFPDGTKLTIELPENMSIEEALKKALEALKSAGGSA [r2_92_TrROS_Hall]: 2.87
- SAGGSKERTYRVLIRNPDGELEEIEVSEEELEALLSLPPSATVRIVTEDGEEKTVTINVEKVELKESAGGSA [r2_222_TrROS_Hall]: 3.07

Taken from the supplement of paper PMC12764529.
